Known Percent Effect of a selection of compounds
target-of-assay: Shiga toxin 2 (Escherichia coli O157:H7) (UniProt P09385+P09386)
method-description: E. coli 0.157:H7 Shiga Toxin SOP - stx2 screening assay
Format: functional
Set-up: scale not given: direction of the effect not stated beside the values
condition-parameters: 30 µM

| compound | target-of-assay | Percent Effect [%] |
| --- | --- | --- |
| O=C(NCCN1CCCCCC1=O)c1n[nH]c(=O)c2ccccc12 | Shiga toxin 2 (Escherichia coli O157:H7) (UniProt P09385+P09386) | -6.19 |
| COCCNC(=O)Nc1ccc(F)c(C(N)=O)c1 | Shiga toxin 2 (Escherichia coli O157:H7) (UniProt P09385+P09386) | -19.7 |
| COc1ccc(CNC(=O)N2CCC(Cc3cnn(C)c3)C2)cc1C (configuration not stated) | Shiga toxin 2 (Escherichia coli O157:H7) (UniProt P09385+P09386) | 18 |
| CC(C)n1ccnc1C1CCN(Cc2ccc(Cl)c(F)c2)CC1 | Shiga toxin 2 (Escherichia coli O157:H7) (UniProt P09385+P09386) | -39.8 |
| CCO[C@@H]1CC[C@H]2[C@H]1OCCN2C(=O)C1CCOCC1 | Shiga toxin 2 (Escherichia coli O157:H7) (UniProt P09385+P09386) | 8.02 |
| O=C(CC1CC1)N[C@@H]1CN(Cc2ccncc2)C[C@@H]2CCCO[C@@H]21 | Shiga toxin 2 (Escherichia coli O157:H7) (UniProt P09385+P09386) | -6.38 |
| CCOc1ncccc1CNC(=O)Nc1ccc(N(C)C)nc1 | Shiga toxin 2 (Escherichia coli O157:H7) (UniProt P09385+P09386) | -48.5 |
| CCOCCCn1c(NC(=O)c2ccc(C)nc2)nc2ccccc21 | Shiga toxin 2 (Escherichia coli O157:H7) (UniProt P09385+P09386) | 14.9 |
| Cc1ccc(Cl)cc1N1CCC(CNC(=O)CCn2ccnc2)C1 (configuration not stated) | Shiga toxin 2 (Escherichia coli O157:H7) (UniProt P09385+P09386) | -19.4 |
| O=C(Cn1cccnc1=O)NC(Cc1ccsc1)c1ccccn1 (configuration not stated) | Shiga toxin 2 (Escherichia coli O157:H7) (UniProt P09385+P09386) | -4.55 |
| O=S(=O)(c1ccccc1)N1CCCCC1c1cc[nH]n1 (configuration not stated) | Shiga toxin 2 (Escherichia coli O157:H7) (UniProt P09385+P09386) | 62 |
| c1cnc(N2CCCC3(CCN(Cc4ccncc4)C3)C2)nc1 (configuration not stated) | Shiga toxin 2 (Escherichia coli O157:H7) (UniProt P09385+P09386) | 1.1 |

* * *

Known Percent Effect of a selection of molecules
target-of-assay: Sialic acid-binding Ig-like lectin 9 (Homo sapiens) (UniProt Q9Y336)
Sequence (Q9Y336 whole entry): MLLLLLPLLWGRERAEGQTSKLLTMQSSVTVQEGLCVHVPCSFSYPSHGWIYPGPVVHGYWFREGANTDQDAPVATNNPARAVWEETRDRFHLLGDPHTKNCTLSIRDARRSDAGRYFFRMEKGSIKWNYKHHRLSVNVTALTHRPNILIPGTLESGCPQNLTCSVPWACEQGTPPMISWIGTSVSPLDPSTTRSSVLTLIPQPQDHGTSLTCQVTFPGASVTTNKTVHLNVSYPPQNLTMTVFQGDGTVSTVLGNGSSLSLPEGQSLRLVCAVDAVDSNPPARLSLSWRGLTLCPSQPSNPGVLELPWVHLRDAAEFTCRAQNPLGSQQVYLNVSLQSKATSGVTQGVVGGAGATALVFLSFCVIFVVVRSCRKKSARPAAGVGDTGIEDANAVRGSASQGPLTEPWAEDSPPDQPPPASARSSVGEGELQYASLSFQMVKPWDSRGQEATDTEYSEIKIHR
method-description: Hs-Siglec9 ALPHAscreen SOP 20170721
Design: scale not given: direction of the effect not stated beside the values
condition-parameters: 10 µM

| molecule | target-of-assay | Percent Effect (%) |
| --- | --- | --- |
| Cc1ccccc1CC(=O)N1CCN(C2CCOC2=O)CC1 (stereo not drawn) | Sialic acid-binding Ig-like lectin 9 (Homo sapiens) (UniProt Q9Y336) | 2.56 |
| O=C(Nc1cccnc1)[C@H]1CN(Cc2nccs2)C[C@H]2OCC[C@@H]12 | Sialic acid-binding Ig-like lectin 9 (Homo sapiens) (UniProt Q9Y336) | -6.59 |
| COCCN1CCN(Cc2ccncc2)[C@H]2CS(=O)(=O)C[C@H]21 | Sialic acid-binding Ig-like lectin 9 (Homo sapiens) (UniProt Q9Y336) | 17.6 |
| C[C@@H]1CN(Cc2ccsc2)C[C@]12CCN(Cc1cccnc1)C2=O | Sialic acid-binding Ig-like lectin 9 (Homo sapiens) (UniProt Q9Y336) | 1.42 |
| CC(C)c1nccc([C@H]2C[C@@H]3CCN(Cc4ccoc4)C[C@H]3O2)n1 | Sialic acid-binding Ig-like lectin 9 (Homo sapiens) (UniProt Q9Y336) | -2.81 |
| CCn1cc(CN2CCCN(C(=O)Cc3cccs3)CC2)cn1 | Sialic acid-binding Ig-like lectin 9 (Homo sapiens) (UniProt Q9Y336) | 3.48 |
| COc1ccc(C(=O)C2CCCN(Cc3ccncc3)C2)c(OC)c1 (stereo not drawn) | Sialic acid-binding Ig-like lectin 9 (Homo sapiens) (UniProt Q9Y336) | 12.6 |
| c1ccc(CN2C[C@@H]3OCCN(c4ncccn4)[C@@H]3C2)nc1 | Sialic acid-binding Ig-like lectin 9 (Homo sapiens) (UniProt Q9Y336) | 1.5 |
| COCCNC(=O)[C@@]12CCO[C@@H]1CCN(Cc1c(C)noc1C)C2 | Sialic acid-binding Ig-like lectin 9 (Homo sapiens) (UniProt Q9Y336) | -7.07 |
| CC(C)N1CCC2(CCN(C(=O)c3cccnc3)CC2)C1 | Sialic acid-binding Ig-like lectin 9 (Homo sapiens) (UniProt Q9Y336) | -12.5 |
| O=C(Cc1c(F)cccc1F)N1CCN(CC(=O)N2CCCC2)CC1 | Sialic acid-binding Ig-like lectin 9 (Homo sapiens) (UniProt Q9Y336) | -2.19 |
| c1cnc(N2CCCC3(CCN(Cc4ccncc4)C3)C2)nc1 (stereo not drawn) | Sialic acid-binding Ig-like lectin 9 (Homo sapiens) (UniProt Q9Y336) | -7 |
| c1ccc(CO[C@H]2CO[C@@]3(CCN(Cc4ccoc4)C3)C2)nc1 | Sialic acid-binding Ig-like lectin 9 (Homo sapiens) (UniProt Q9Y336) | 5.22 |
| COCC(=O)NC(C)Cc1cccc(Br)c1 (stereo not drawn) | Sialic acid-binding Ig-like lectin 9 (Homo sapiens) (UniProt Q9Y336) | 6.28 |
| O=C1C[C@H]2[C@H](CCN2Cc2ccccn2)N1CC1CC1 | Sialic acid-binding Ig-like lectin 9 (Homo sapiens) (UniProt Q9Y336) | -4.27 |
| CCN1CCC2(CCC1=O)CN(c1ccnc(SC)n1)CCN2C (stereo not drawn) | Sialic acid-binding Ig-like lectin 9 (Homo sapiens) (UniProt Q9Y336) | 13 |
| Cc1cc(N2CCN3CCCCC3C2)n2nc(C)c(C)c2n1 (stereo not drawn) | Sialic acid-binding Ig-like lectin 9 (Homo sapiens) (UniProt Q9Y336) | -5.54 |
| COCCN1C[C@@H]2CN(Cc3cccc(C)n3)C[C@@H]2C1=O | Sialic acid-binding Ig-like lectin 9 (Homo sapiens) (UniProt Q9Y336) | 0.23 |
| Cc1cccc(CN2C(=O)C[C@H]3[C@@H]2CCN3CC2CC2)n1 | Sialic acid-binding Ig-like lectin 9 (Homo sapiens) (UniProt Q9Y336) | 2.35 |
| O=C(CC1CC1)N[C@@H]1CN(Cc2ccncc2)C[C@@H]2CCCO[C@@H]21 | Sialic acid-binding Ig-like lectin 9 (Homo sapiens) (UniProt Q9Y336) | -5.17 |
| Cc1c(CC(=O)N2CCN(CC(F)(F)F)CC2)nnn1-c1ccccc1 | Sialic acid-binding Ig-like lectin 9 (Homo sapiens) (UniProt Q9Y336) | 2.86 |
| O=C(c1cc(-n2cnnn2)ccc1Cl)N1CCC2(CC1)OCCO2 | Sialic acid-binding Ig-like lectin 9 (Homo sapiens) (UniProt Q9Y336) | 7.5 |
| COc1ncccc1CN1C[C@@H]2COC[C@]2(COCC2CC2)C1 | Sialic acid-binding Ig-like lectin 9 (Homo sapiens) (UniProt Q9Y336) | 5.34 |
